system: Lolium perenne (LOLPE); assay: Example B7: pre application on weeds, LOLPE; format: in vivo; settings: 312 h, pre-emergence spray one day after sowing, evaluated after 13 days, read-out: Pre application on weeds, LOLPE (100=total damage to plant; 0=no damage to plant)
QUANTITY_MEASURED: pest or weed control at 250 g/ha (%)
Numbers only, in %.

{"COMPOUND": "CCOC(=O)Oc1c(-c2c(C)cc(Cl)cc2C)c(=O)n2n1CCN(OC)CC2 [Compound P1.3]", "QUANTITY_MEASURED": "pest or weed control at 250 g/ha", "REPORTED": 10}

Fill in pest or weed control at 250 g/ha for each of the 4 compounds listed.
1. C#Cc1cc(C)cc(C)c1C1C(=O)N2CCN(OC)CCN2C1=O [Compound P2.5]
2. CCOC(=O)Oc1c(-c2c(Cl)cc(C)cc2Br)c(=O)n2n1CCN(OC)CC2 [Compound P1.11]
3. CCOC(=O)Oc1c(-c2cc(-c3ccc(Cl)cc3)ccc2C)c(=O)n2n1CCN(OC)CC2 [Compound P1.7]
4. CON1CCN2C(=O)C(c3c(Cl)cc(C)cc3Br)C(=O)N2CC1 [Compound P2.10]

Result:
[100, 90, 0, 100]

Batch request: pest or weed control at 250 g/ha per item, same order as input.
1. CON1CCN2C(=O)C(c3c(C)cc(Cl)cc3C)C(=O)N2CC1 [Compound P2.2]
2. C#Cc1cc(C)c(-c2c(OC(=O)OCC)n3n(c2=O)CCN(OC)CC3)c(C)c1 [Compound P1.8]
3. CCc1cc(C)cc(CC)c1C1C(=O)N2CCN(OC)CCN2C1=O [Compound P2.3]

Result:
[80, 0, 100]
